Recorded measurements of growth, one per entry
test system: U251 CNS; assay: NCI-60 one-dose screen, 48 h (100 = growth as untreated, 0 = no growth, -100 = all killed); conditions: 10 µM unless noted
This is part of a sample that, as a whole, favours compounds with a hit. Of some 83,000 tested, about 20% had one in any assay.
The answer is to be given in %; state only the numeric part.

Known growth results, listed for orientation:
CC1(C)N=C(N)N=C(N)N1c1cccc(CCc2ccccc2)c1 : 38.1
O=C(CCCCCNC(=O)c1cc(=O)c(O)co1)Nc1ccccc1 : 89.9
C=CCC(CCCC)(C(=O)OCC)C(=O)OCC : 102
O=C(/C=C(O)/C=C/c1cccc2[nH]ccc12)/C=C/c1cccc2[nH]ccc12 : 45.2
O=C(Cc1ccc(NC(=O)c2cccc(Cl)c2)cc1)NCc1ccccc1 : 33.3
CO[C@H](C(=O)[C@@H](O)[C@@H](C)O)[C@@H]1Cc2cc3cc(O[C@H]4C[C@@H](O[C@H]5C[C@@H](O)[C@H](O)C(C)O5)[C@H](O)C(C)(O)O4)cc(O)c3c(O)c2C(=O)[C@H]1O[C@H]1C[C@@H](O[C@H]2C[C@@H](O[C@H]3C[C@@H](OC)[C@H](O)C(C)O3)[C@@H](O)C(C)O2)[C@H](O)C(C)O1 (stereo partly drawn) : 6.61
CCn1cc(CNc2ccc(C(=O)Nc3cc4cc(OC)c(OC)cc4c(C)n3)cc2)cn1 : 65.2

Provide only the value of recorded growth for `Cc1cccc(-c2nc(Nc3ccc4ncsc4c3)c3ccccc3n2)n1`
77
